molecular target: EGFR Del19/T790M/C797S (Homo sapiens, UniProt P00533, C797S/DEL746-750/T790M); assay: Biochemical EGFR kinase inhibition assay (Lance Ultra TR-FRET), triple mutant del19/T790M/C797S; conditions: IC50 Del19/T790M/C797S (nM), 100 μM ATP
Sequence (P00533 with tags, fused parts or gaps DEL746-750/T790M/C797S): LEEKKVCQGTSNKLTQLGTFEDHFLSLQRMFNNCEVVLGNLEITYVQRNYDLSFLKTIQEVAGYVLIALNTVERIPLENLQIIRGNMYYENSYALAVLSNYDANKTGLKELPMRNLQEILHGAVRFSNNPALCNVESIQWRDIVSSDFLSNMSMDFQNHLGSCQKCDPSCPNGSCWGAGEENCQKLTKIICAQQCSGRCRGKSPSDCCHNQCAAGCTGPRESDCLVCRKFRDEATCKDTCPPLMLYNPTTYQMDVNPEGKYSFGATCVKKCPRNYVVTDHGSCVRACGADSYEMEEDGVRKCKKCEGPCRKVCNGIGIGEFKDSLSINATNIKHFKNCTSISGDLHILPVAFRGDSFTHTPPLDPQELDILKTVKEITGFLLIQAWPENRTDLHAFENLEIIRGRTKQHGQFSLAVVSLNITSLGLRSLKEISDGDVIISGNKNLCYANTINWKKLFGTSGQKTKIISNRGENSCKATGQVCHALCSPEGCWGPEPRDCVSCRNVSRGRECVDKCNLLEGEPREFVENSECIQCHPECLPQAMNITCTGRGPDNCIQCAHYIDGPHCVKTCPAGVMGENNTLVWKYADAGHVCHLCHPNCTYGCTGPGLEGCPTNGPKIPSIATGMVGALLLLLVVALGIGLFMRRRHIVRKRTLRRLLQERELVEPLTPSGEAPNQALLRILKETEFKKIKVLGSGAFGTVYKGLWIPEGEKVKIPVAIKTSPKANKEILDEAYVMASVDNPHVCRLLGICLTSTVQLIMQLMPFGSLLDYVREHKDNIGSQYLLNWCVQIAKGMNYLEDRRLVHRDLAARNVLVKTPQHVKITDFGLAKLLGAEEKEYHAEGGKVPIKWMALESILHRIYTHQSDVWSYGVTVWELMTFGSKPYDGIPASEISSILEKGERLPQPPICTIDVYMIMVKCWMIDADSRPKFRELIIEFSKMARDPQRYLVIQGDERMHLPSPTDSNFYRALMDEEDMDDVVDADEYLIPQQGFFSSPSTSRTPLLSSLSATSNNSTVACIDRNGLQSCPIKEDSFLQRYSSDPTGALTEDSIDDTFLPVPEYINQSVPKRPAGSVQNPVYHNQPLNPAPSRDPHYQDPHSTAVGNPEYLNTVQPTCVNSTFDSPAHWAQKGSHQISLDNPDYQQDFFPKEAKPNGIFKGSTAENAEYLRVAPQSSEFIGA
Criterion: IC50 strictly under 5 nM. Met: Criterion met. Not met: Criterion not met.

| smiles_code | assigned_category |
| --- | --- |
| O=S(=O)(C1CC1)n1cc(-c2nccc(Nc3cc(N4CCC[C@H](O)C4)c(C#Cc4cnn(C(F)(F)F)c4)cn3)n2)cn1 | Criterion met |
| Cn1cnc(C#Cc2cnc(Nc3ccnc(-c4cnn(S(=O)(=O)C5CC5)c4)n3)cc2N2CCC(O)CC2)n1 | Criterion met |
| Cn1cc(C#Cc2cnc(Nc3ccnc(-c4cnn(S(=O)(=O)C5CC5)c4)n3)cc2N2CCC(F)(CO)CC2)cn1 | Criterion met |
| O=S(=O)(C1CC1)n1cc(-c2nccc(Nc3cc(N[C@H]4CCC[C@H](O)C4)c(C#Cc4ccc(CN5CCOCC5)cc4)cn3)n2)cn1 | Criterion not met |
| CN(C)CC1(O)CCN(c2cc(Nc3ccnc(-c4cnn(S(=O)(=O)C5CC5)c4)n3)ncc2C#Cc2cnn(C3CC3)c2)CC1 | Criterion met |
| O=S(=O)(C1CC1)n1cc(-c2nccc(Nc3cc(N[C@H]4CCC[C@@H](O)C4)c(C#Cc4ccc(CN5CCOCC5)cc4)cn3)n2)cn1 | Criterion not met |

Recorded values, source patent US11981658B2.
